Consider the following compounds and their measured pIC50 readings.
Test system: BEL-7402
Test: MTT cytotoxicity assay
Assay type: cell-based
Settings: Homo sapiens, 48 h
Please note pIC50 is a logarithmic value: minus log10 of concentration in mol/L. Answer with that number alone.

compound	assayValue
CC1(C)C2CC[C@]3(C)C(C(=O)C=C4[C@@H]5C[C@@](C)(C(=O)Oc6ccc([N+](=O)[O-])cc6)CC[C@]5(C)CC[C@]43C)[C@@]2(C)CC[C@@H]1O (stereo partly shown) [Compound 3d]	4.58

Kindly review the next compound as well.
Query block: Sample CC1(C)[C@@H](O)CC[C@]2(C)[C@H]3C(=O)C=C4[C@@H]5C[C@@](C)(C(=O)Oc6ccc(Br)cc6)CC[C@]5(C)CC[C@@]4(C)[C@]3(C)CC[C@@H]12 [Compound 3a] — what was its pIC50?
Result block: 4.49

====

Test system: BEL-7402
Experiment: MTT cytotoxicity assay
Type: cell-based
Details: Homo sapiens, 48 h
Consider the following compounds and their measured IC50 readings.
Mention the unit after the number when you answer.

Consider the following illustrative entries.
compound	IC50
COc1ccc(OC(=O)[C@@]2(C)CC[C@]3(C)CC[C@]4(C)C(=CC(=O)C5[C@@]6(C)CC[C@H](O)C(C)(C)C6CC[C@]54C)[C@@H]3C2)cc1 (stereo partly drawn) [Compound 3f]	41.6 µM
CC1(C)C2CC[C@]3(C)C(C(=O)C=C4[C@@H]5C[C@@](C)(C(=O)Oc6ccc(Cl)cc6)CC[C@]5(C)CC[C@]43C)[C@@]2(C)CC[C@@H]1O (stereo partly drawn) [Compound 3b]	39.9 µM

Kindly review the next compound as well.
Query block: Sample CC1(C)[C@@H](O)CC[C@]2(C)[C@H]3C(=O)C=C4[C@@H]5C[C@@](C)(C(=O)O)CC[C@]5(C)CC[C@@]4(C)[C@]3(C)CC[C@@H]12 [GA, 18β-glycyrrhetinic acid, reference compound] — what was its IC50?
Result block: 45.9 µM
